// provenance: patent US20150004189A1

testedOn: T1, HLA-DR DRB1*0301 (human)
T1 chain 1: not shown
T1 chain 2: not shown
assayProtocol: inhibition of radiolabeled peptide binding to purified HLA class II
measurementSetup: remark: other sources report otherwise
measuredParameter: IC50

# binder, result
records = [
    ("IASLFAAAGLAAAAP (modifications not checked) [Alt a 1 peptide, position 6, Peptide ID 3324.0015]", "32.1 µM"),
]
